Below: a set of entries, each annotated with reported half-life at 1 μM.
assay: Liver microsomal metabolic stability, rat liver microsomes (RLM); settings: rat, liver microsomes, t1/2 (min) in RLM, 1 μM compound, 1 mg/mL microsomes, NADPH

>  <Compound>
CCn1cc(C#N)nc1-c1ccc(NC2CCCn3nc(-c4c(Cl)cnn4C(C)C)cc32)cc1 (stereo not shown)

>  <half-life at 1 μM>
< 25 min

$$$$

Kindly note the recorded half-life at 1 μM for CCn1cc(C(F)(F)F)nc1-c1ccc(CN2C(=O)CCn3nc(-c4c(OC)ncnc4C4CC4)nc32)cc1 , which is > 25 min

Kindly note the recorded half-life at 1 μM for CCn1cc(C(F)(F)F)nc1-c1ccc(CN2C(=O)CCn3nc(-c4c(Cl)cnn4C(C)C)cc32)cc1F , which is < 25 min

Kindly note the recorded half-life at 1 μM for CCn1cc(C(F)(F)F)nc1-c1ccc(NC2CCCn3nc(-c4c(Cl)cnn4C(C)C)cc32)cc1C#N (stereo not shown) , which is < 25 min

----------
Below: a set of entries, each annotated with reported half-life at 1 μM.
experiment: Liver microsomal metabolic stability, rat liver microsomes (RLM); conditions: rat, liver microsomes, t1/2 (min) in RLM, 1 μM compound, 1 mg/mL microsomes, NADPH

For orientation, consider the following solved cases.
>  <Molecule>
Cc1cnn(C(C)C)c1-c1cc2n(n1)CCC(=O)N2Cc1ccc(-c2nc(C(F)(F)F)cn2C(C)C)cc1 [Example 73]

>  <half-life at 1 μM>
< 25 min

$$$$
>  <Molecule>
CC(C)n1ncc(Cl)c1-c1cc2n(n1)CCC(=O)N2Cc1ccc(-c2ncccc2N(C)C)c(Cl)c1 [Example 312]

>  <half-life at 1 μM>
< 25 min

$$$$
>  <Molecule>
COc1ncnc(C2CC2)c1-c1cc2n(n1)CCC(=O)N2Cc1ccc(-c2nc(C(F)(F)F)cn2C)cc1 [Example 1]

>  <half-life at 1 μM>
> 25 min

$$$$
>  <Molecule>
CCn1cc(C(F)(F)F)nc1-c1ccc(C(C)N2CCCn3nc(-c4c(OC)ncnc4C4CC4)cc32)cc1 (centres unmarked) [Example 66]

>  <half-life at 1 μM>
< 25 min

$$$$

Kindly note the recorded half-life at 1 μM for Cc1cnn(C(C)C)c1-c1cc2n(n1)CCCN2Cc1ccc(-n2nc(C(F)(F)F)cc2C)cc1 [Example 52] , which is < 25 min

----------
system: Ub-PCNA levels in the nucleus of ES2 cells (USP1 activity); test: ES2 Ub-PCNA immunofluorescence (IF) assay; format: cell-based; conditions: Homo sapiens, ES-2; ES2 cells, 3 hours, Ub-PCNA immunofluorescence; read-out: USP1 IC50 (Ub-PCNA)
Assay Readout: IC50

For orientation, consider the following solved cases.
>  <Compound>
COc1cc(C(F)(F)F)nn1-c1ccc(CN2CCCn3nc(-c4c(C)cnn4C(C)C)cc32)cc1F [Example 57]

>  <Assay Readout>
IC50

>  <Experimental Value>
< 100 nM

$$$$
>  <Compound>
COc1ncnc(C2CC2)c1-c1nc2n(n1)CCC(=O)N2Cc1ccc(-c2nc(C(F)(F)F)cn2C(C)C)c(F)c1 [Example 164]

>  <Assay Readout>
IC50

>  <Experimental Value>
< 100 nM

$$$$
>  <Compound>
CCn1cc(C(F)(F)F)nc1-c1ccc([C@H](C)n2c(=O)ccn3nc(-c4c(OC)ncnc4C4CC4)cc23)cc1F (single isomer, unassigned) [Example 334]

>  <Assay Readout>
IC50

>  <Experimental Value>
100 to 500 nM

$$$$
>  <Compound>
CC(C)n1cc(C(F)(F)F)nc1-c1ccc([C@H](C)N2C(=O)CCn3nc(-c4c(Cl)cnn4C(C)C)nc32)cc1 [Example 177]

>  <Assay Readout>
IC50

>  <Experimental Value>
< 100 nM

$$$$
>  <Compound>
CCn1cc(C(F)(F)F)nc1-c1ccc(NC2CCCn3nc(-c4c(Cl)cnn4C(C)C)cc32)cn1 (centres unmarked) [Example 245]

>  <Assay Readout>
IC50

>  <Experimental Value>
100 to 500 nM

$$$$

Kindly note the recorded IC50 for CCn1cc(C(F)(F)F)nc1-c1ccc(CC2OCCn3nc(-c4c(Cl)cnn4C(C)C)cc32)cc1 (centres unmarked) [Example 265] , which is 100 to 500 nM

Kindly note the recorded IC50 for CCn1cc(C(F)(F)F)nc1-c1ccc(COC2CCCn3nc(-c4c(Cl)cnn4C(C)C)cc32)cc1 (centres unmarked) [Example 270] , which is < 100 nM

Kindly note the recorded IC50 for COc1cc(CN2C(=O)CCn3nc(-c4c(OC)ncnc4C4CC4)cc32)cc(F)c1-c1nc(C(F)(F)F)cn1C(C)C [Example 144] , which is < 100 nM

----------
assay: Liver microsomal metabolic stability, rat liver microsomes (RLM); details: rat, liver microsomes, t1/2 (min) in RLM, 1 μM compound, 1 mg/mL microsomes, NADPH
Assay Readout: half-life at 1 μM

For orientation, consider the following solved cases.
>  <Compound>
CCn1cc(C(F)(F)F)nc1-c1ccc(CN2C(=O)CCn3nc(-c4c(C(F)F)cnn4C(C)C)cc32)cc1F

>  <Experimental Value>
> 25 min

$$$$
>  <Compound>
Cc1cnn(C(C)C)c1-c1cc2n(n1)CCCN2Cc1ccc(-n2nc(C(F)(F)F)cc2C)c(F)c1

>  <Experimental Value>
< 25 min

$$$$
>  <Compound>
CCn1cc(C(F)(F)F)nc1-c1ccc(CN2C(=O)CCn3nc(-c4c(Cl)cnn4[C@H](C)COC)cc32)cc1F

>  <Experimental Value>
< 25 min

$$$$
>  <Compound>
COc1ncnc(C2CC2)c1-c1cc2n(n1)CCCN2Cc1ccc(-c2nc(C(F)(F)F)cn2C(C)C)c(F)c1

>  <Experimental Value>
< 25 min

$$$$
>  <Compound>
CCn1cc(C(F)(F)F)nc1-c1c(F)cc(CN2C(=O)CCn3nc(-c4c(Cl)cnn4C(C)C)cc32)cc1OC

>  <Experimental Value>
> 25 min

$$$$

Kindly note the recorded half-life at 1 μM for CC(CF)n1cc(C(F)(F)F)nc1-c1ccc(NC2CCCn3nc(-c4c(OC(F)F)ncnc4C4CC4)cc32)cc1 (stereo not drawn) , which is > 25 min

Kindly note the recorded half-life at 1 μM for CCn1cc(C(F)(F)F)nc1-c1ccc([C@@H](C)N2C(=O)CCn3nc(-c4c(OC)ncnc4C4CC4)cc32)cc1 , which is > 25 min

Kindly note the recorded half-life at 1 μM for COc1cc(C(F)(F)F)nn1-c1ccc(CN2CCCn3nc(-c4c(C)cnn4C(C)C)cc32)cc1F , which is < 25 min

Kindly note the recorded half-life at 1 μM for Cc1cnn(C(C)C)c1-c1nn2c(c1Cl)N(Cc1ccc(-c3nc(C(F)(F)F)cn3C)cc1)CCC2 , which is < 25 min

Kindly note the recorded half-life at 1 μM for CC(C)n1cc(C(F)(F)F)nc1-c1ccc(CN2CCCn3nc(-c4c(Cl)cnn4C(C)C)cc32)cc1F , which is < 25 min

Kindly note the recorded half-life at 1 μM for Cc1cc(C(F)(F)F)nn1-c1ccc(CN2C(=O)CCn3nc(-c4c(Cl)cnn4C(C)C)cc32)cc1 , which is > 25 min

Kindly note the recorded half-life at 1 μM for CCn1cc(C(F)(F)F)nc1-c1ccc(C(C)N2C(=O)CCn3nc(-c4c(Cl)cnn4C(C)C)cc32)cc1F (stereo not drawn) , which is < 25 min

Kindly note the recorded half-life at 1 μM for Cn1cc(C(F)(F)F)nc1-c1ccc(CN2C(=O)CCn3nc(-c4c(Cl)cnn4C4CCC4)cc32)cc1F , which is < 25 min

Kindly note the recorded half-life at 1 μM for CCn1cc(C(F)(F)F)nc1-c1ccc(CN2CC(C)(C)Cn3nc(-c4c(OC)ncnc4C4CC4)cc32)cc1F , which is < 25 min

Kindly note the recorded half-life at 1 μM for CCn1cc(C(F)(F)F)nc1-c1ccc(CN2C(=O)CCn3nc(-c4c(Cl)cnn4C(C)(C)COC)cc32)cc1F , which is < 25 min

Kindly note the recorded half-life at 1 μM for COc1ncnc(C2CC2)c1-c1nc2n(n1)CCC(=O)N2Cc1ccc(-c2nc(C(F)(F)F)cn2C(C)C)c(F)c1 , which is > 25 min

Kindly note the recorded half-life at 1 μM for CCn1cc(C(F)(F)F)nc1-c1ccc([C@@H](C)N2C(=O)CCn3nc(-c4c(Cl)cnn4C(C)C)cc32)cn1 , which is > 25 min

Kindly note the recorded half-life at 1 μM for CCn1cc(C(F)(F)F)nc1-c1ccc([C@H](C)N2C(=O)CCn3nc(-c4c(OC)ncnc4C4CC4)cc32)cc1 , which is < 25 min

Kindly note the recorded half-life at 1 μM for COc1cccnc1-c1ccc(CN2C(=O)CCn3nc(-c4c(Cl)cnn4C(C)C)cc32)cc1 , which is < 25 min

Kindly note the recorded half-life at 1 μM for CCn1cc(C(F)(F)F)nc1-c1ccc(C(C)N2C(=O)CCn3nc(-c4c(Cl)cnn4C(C)C)cc32)cc1 (stereo not drawn) , which is < 25 min

Kindly note the recorded half-life at 1 μM for CC(C)n1ncc(Cl)c1-c1cc2n(n1)CCC(=O)N2Cc1ccc(-c2ncccc2OC2CC2)c(Cl)c1 , which is < 25 min
